target: α2A receptor (Homo sapiens, UniProt P08913); construct: host or cells: LM(tk-) cells, line L-α2A; experiment: Competition binding, [3H]rauwolscine, human α2A receptor; conditions: [3H]rauwolscine, LM(tk-) cell line L-α2A; SEM and n in lines below; read-out: pKi alpha-2 2a (converted)
Sequence (P08913 whole entry): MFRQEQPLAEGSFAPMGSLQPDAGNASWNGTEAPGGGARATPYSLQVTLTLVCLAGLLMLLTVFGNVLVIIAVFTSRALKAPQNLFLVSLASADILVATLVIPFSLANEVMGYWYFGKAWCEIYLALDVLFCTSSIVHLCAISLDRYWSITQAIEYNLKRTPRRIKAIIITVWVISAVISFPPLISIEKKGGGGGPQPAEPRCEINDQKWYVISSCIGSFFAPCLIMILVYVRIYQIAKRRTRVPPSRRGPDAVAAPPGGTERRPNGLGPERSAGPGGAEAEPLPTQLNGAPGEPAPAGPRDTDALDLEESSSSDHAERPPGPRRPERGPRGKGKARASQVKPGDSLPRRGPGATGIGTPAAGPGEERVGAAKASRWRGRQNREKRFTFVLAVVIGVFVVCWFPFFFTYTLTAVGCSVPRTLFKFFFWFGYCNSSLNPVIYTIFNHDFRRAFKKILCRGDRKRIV
Counter-ions that a name gives are not always drawn.
assay endpoint: Ki

- COC(=O)C1=C(C)NC(C)=C(C(=O)NCCCCN2CCC(c3ccccc3)CC2)C1c1ccc([N+](=O)[O-])cc1 (stereo not shown) [Example 3, hydrochloride hydrate]: 102 nM
- CC1=C(C(=O)NCCCN2CCC(c3ccccc3)CC2)C(c2ccc([N+](=O)[O-])cc2)c2c([nH]c(=O)[nH]c2=O)N1 (stereo not shown): 955 nM
- COC(=O)C1=C(C)NC(C)=C(C(=O)NCCCN2CCC(c3ccccc3)CC2)C1c1ccc([N+](=O)[O-])cc1 (racemic) [(±)-45, hydrochloride hemihydrate]: 282 nM
- CC1=C(C(N)=O)C(c2cccc([N+](=O)[O-])c2)C(C(=O)NCCCN2CCC(c3ccccc3)(c3ccccc3)CC2)=C(C)N1 (stereo not shown): 759 nM
